Origin of the recorded values: ChEMBL document CHEMBL3639072

System Name: Beta-secretase 1 (Homo sapiens)
Sequence (P56817 whole entry): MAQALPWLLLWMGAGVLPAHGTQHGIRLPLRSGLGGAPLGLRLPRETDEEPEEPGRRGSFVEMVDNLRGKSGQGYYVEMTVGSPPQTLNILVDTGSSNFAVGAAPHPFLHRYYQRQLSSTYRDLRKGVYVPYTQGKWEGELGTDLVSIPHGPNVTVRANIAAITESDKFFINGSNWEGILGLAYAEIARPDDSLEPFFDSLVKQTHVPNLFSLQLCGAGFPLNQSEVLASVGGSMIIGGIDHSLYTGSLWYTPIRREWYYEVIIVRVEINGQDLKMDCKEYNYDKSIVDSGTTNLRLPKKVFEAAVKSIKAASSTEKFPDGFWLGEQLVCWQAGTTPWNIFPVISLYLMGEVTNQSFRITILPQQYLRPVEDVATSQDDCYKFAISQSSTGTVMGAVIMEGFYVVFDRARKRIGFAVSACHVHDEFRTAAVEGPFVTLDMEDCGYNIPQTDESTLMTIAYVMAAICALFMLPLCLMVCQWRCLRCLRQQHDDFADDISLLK
Observation Type: IC50 (nM)
All answers are understood in nM, so give the number only.

Challenge: Give a short answer stating reported IC50 for Cc1cnc(C(=O)Nc2ccc(F)c([C@]3(C)CO[C@@](C)(C(F)(F)F)C(N)=N3)n2)c(C)n1 .
Response given: 230

---

System Name: Beta-secretase 2 (Homo sapiens, UniProt Q9Y5Z0)
Sequence (Q9Y5Z0 whole entry): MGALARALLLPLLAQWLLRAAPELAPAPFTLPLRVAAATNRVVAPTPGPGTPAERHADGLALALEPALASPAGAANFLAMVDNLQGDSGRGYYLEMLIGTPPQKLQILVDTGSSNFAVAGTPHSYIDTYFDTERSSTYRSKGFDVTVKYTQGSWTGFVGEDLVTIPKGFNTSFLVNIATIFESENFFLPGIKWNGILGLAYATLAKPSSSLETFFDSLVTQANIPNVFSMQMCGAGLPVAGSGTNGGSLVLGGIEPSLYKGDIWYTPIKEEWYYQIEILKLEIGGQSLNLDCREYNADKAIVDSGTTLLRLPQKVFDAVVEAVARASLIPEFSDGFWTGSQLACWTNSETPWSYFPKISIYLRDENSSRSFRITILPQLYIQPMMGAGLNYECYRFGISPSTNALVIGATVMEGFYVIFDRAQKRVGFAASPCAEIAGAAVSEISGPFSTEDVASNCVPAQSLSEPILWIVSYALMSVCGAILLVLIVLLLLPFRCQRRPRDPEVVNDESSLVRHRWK
Observation Type: IC50
Remember to put the unit after the number in your answer.

Challenge: Tell me IC50 reported for C[C@@]1(c2nc(NC(=O)c3ncc(OCCCF)nc3N)ccc2F)CO[C@@](C)(C(F)(F)F)C(N)=N1
Response given: 1000 nM
